experiment: soluble on expression in E. coli; label from the status in PepcDB or PDB records

# sequence-chain, soluble on expression in E. coli
records = [
    ("MGSDKIHHHHHHMKTRDRIVHASLELFNLNGEPGITTNHIAAHLGMSPGNLYYHFRNKEDIIRSIFDLYQQHLEKGFQPYENKQVDMALLMGYFDALFYTLWQFRFMYANLVIILGRDEELKQKYLGIQQQVLARSSNILQQLKKDKVLDIADDEITPLADTIRMIAGFWISNQLTYSGAANITKSSLYEGLLRVLMLFKAYSTSDSFETFKHLEQHYRTLALEDDQ", "not soluble"),
    ("MLAVVDEEGTPVAGAMGFAQVVRDGLVVDYIGAVDILRELKATLEESLGAELLKAGVAYPPGTSPGDQKALHYIAEAAGFNVIAALDEPTAANNVLNIEDGAVIDIGGGTTGTAVIGQGQVVCVADEPTGGTHVSLVIAGAYRLPFAEAEKLKMDSCKHQELLPIIKPVIEKIAGIIRQHIQEHPVDQVYLVGGTSCFTGFETIVAAELQRPVIKPANPFLVTPLGIALAAAKTCSNP", "not soluble"),
]

###

assay: soluble on expression in E. coli; label from the status in PepcDB or PDB records
assay-metric: soluble on expression in E. coli

# sequence-chain, meas-value
records = [
    ("MEEVFTAALESKIFRKRWVLLPDYVPDVLPHREAELRRLAEVLAPALRGEKPSNALLYGLTGTGKTAVARLVLRRLEARASSLGVLVKPIYVNARHRETPYRVASAIAEAVGVRVPFTGLSVGEVYERLVKRLSRLRGIYIIVLDEIDFLPKRPGGQDLLYRITRINQELGDRVWVSLVGITNSLGFVENLEPRVKSSLGEVELVFPPYTAPQLRDILETRAEEAFNPGVLDPDVVPLCAALAAREHGDARRALDLLRVAGEIAERRREERVRREHVYSARAEIERDRVSEVVRTLPLHAKLVLLSIMMLEDGGRPASTGEIYERYKELTSTLGLEHVTLRRVSGIISELDMLGIVKSRVVSRGRYGKTREVSLDADRLAVENALSEDPFVARLL", "not soluble"),
    ("AAAKPADKALQAQLPEMALPREAAPRLDGLAAVLPQIHPAEAGKPAESFSLALPPSQPESWSGKLQAALGERLQAMPAQNMDRATLRLDPPSLGTLEISLRHQAGALTVELTASHGEVVRQLQGIGEALRQDLGGRQYTQVAVEVREGM", "not soluble"),
    ("MSLATICSLCNKKISIFKMRLKFKDGVVGQSCLSELNLCNFWAFEPGAKEYAESHTIADLKELQTSGKDFTNIQDQYIDDETKKELQKKQEKKQERQEKIEVLKEFKDDGATKFSSYYFDLKKNQILSSGSLTTSWRVIDFSEVLSYQVNRNGHLEQKHHGIARAVTGGIMAGGVGAIVGTTTGENTDYIDHLGLVINLSDGTNFEVKFLKTKTKTNSFTVKTAEGELRSLISIVQSGMNKAQEKAEQEQTKANTIKIESNADPAEEIRKFKKMADEGIISNEEFEAKKKQLLNLQEGHHHHHH", "not soluble"),
    ("KLSPMIDLWDTLQSLLHVQELHVVAAHGEVKELLVRMSLNEATIPPEKVPIHAINLLLEDTVIPFIFTMEEERSISIPYTDSIDKYVYEPHTALLKAGAFKTVAYRLGLRKLHPNSHLYTSEAYESAFPGRTFVLEEIIPFSTSVLKQLRKVVPQASISCRNFPLSPIELRQRSKMADGGEKTLMGTTMADGKKVLLLLRKAE", "not soluble"),
    ("MRLTTKGRYAVTAMLDLALHAQQGPVSLADISERQGISLSYLEQLFAKLRRGNLVTSVRGPGGGYQLSRHMSGIHVAQVIDAVNESVDATRCQGQGDCHSGDTCLTHHLWCDLSLQIHEFLSGISLADLVSRQEVQEVALRQDERRCSGKTPRLDKIEASAID", "not soluble"),
    ("MGSDKIHHHHHHMLTHYRDYESFKQVAIPLLERRPDVHQLPLGILERGDVPILMAIAEEGDRTIVVLQTIEEQAILAGDVFTYEGIRKLSRILNCPGYVGEQAIIEPLLASHSPFQIKMDQGIYTLTTVIPPVTLDYEFRLIEERFAPQAVAFGWSFIQETGALPATERSRLKNEQTIRKHIEAETLFGLFDGEQLLAMASSSRPTASGVTISYVFTPPKWRKQGIASYLVACLSEHLLQQYPMVSLYTDWSNKTSNKIYQAVGFELAGRSMQITKRPKYQ", "not soluble"),
    ("MGSDKIHHHHHHMQVLVVDYTAKDAAEKFVQSLHETGFAVLVNHPIKQSLVESIYKNWQEFFLSEEKHAFAFDPVKQDGYFSSEISETAKGHSKKDIKEYFHVYPWGRIPAQLNDEIFEYYRLASELAAELLDWVEEYSPADIADKYSETLSNMIKETPNTLLRILHYPPLTGNEEAGAVRAASHEDINLLTILPAANEPGLQVQRQNGEWIDVPSDFGNLIINIGDMLQETSAGYFPSTSHRVINPTGKGSDKSRISLPLFLHPRSEVVLSDKHTQASYLLERLRELGVKV", "not soluble"),
    ("MDEEERTSSRGWMREFKYPSNLRDITEEARISLSSVAHFDELLHESSELAWRTNMSPPHRALFTFSKKTDISYVMLFLDYSRDESYCPQEVRIDLGDGTNDWWLKMYRRVDQPKGWVKIPIHDAFGNPLRVMSLQMTIMKNHEKGRDCVVRHFRVLGPFRSRYDSMNRMILGPSAVLEARPGTEPIKDAIMNHYQSMR", "not soluble"),
    ("MPEITESERAYHLRKMKTRMQRVDVTGDGFISREDYELIAVRIAKIAKLSAEKAEETRQEFLRVADQLGLAPGVRISVEEAAVNATDSLLKMKGEEKAMAVIQSLIMYDCIDTDKDGYVSLPEFKAFLQAVGPDLTDDKAITCFNTLDFNKNGQISRDEFLVTVNDFLFGLEETALANAFYGDLVD", "soluble"),
    ("MKGGIVHSDGSYPKDKFEKINGTWYYFDSSGYMLADRWRKHTDGNWYWFDNSGEMATGWKKIADKWYYFNEEGAMKTGWVKYKDTWYYLDAKEGAMVSNAFIQSADGTGWYYLKPDGTLADRPEFTVEPDGLITVK", "soluble"),
    ("MSLSRRPAYARLLDRAVRILAVRDHSEQELRRKLAAPIMGKNGPEEIDATAEDYERVIAWCHEHGYLDDSRFVARFIASRSRKGYGPARIRQELNQKGISREATEKAMRECDIDWCALARDQATRKYGEPLPTVFSEKVKIQRFLLYRGYLMEDIQDIWRNFADEGHHHHHH", "soluble"),
    ("NDLVSFTLRGNASWNRDKIIENDEAPKPYPWMEKRGTNVFSQWGLIADGLFTSEEEIEKHATQFGQVYIGDIKYRDLNNDKKIDSNDICRIGQGTIPKYNYGFGFDVQIGYFSVSALFQGAADVTTCLSGNSIIPFSSQAGIDNLFDNIEDRWSPDDPTNEDVFYPRLHYGNSNNSNNYRASTWWLRNMDYLRLKQFNIAYNLPENTLKSVGVKGARIYLMGTNLLTFSKFKLWDPEVYSSNGAAYPNVMSCSLGVNFSF", "not soluble"),
    ("MPTVQTIYSLEKAPEATKDKEPLVVYATSVDWKWVFSYPEQDIETVNYLNIPVDRPILCKISSADSMASLWIPQLGGQKYAMAGMLMDQYLQADKVGTYEGRNANFTGEHFADQEFDVNAVTEKDFNSWVKKTQNEAPKLTKEKYDELMLPENVDELTFSSTHLKYVDHGQDAEYAMEARKRLGYQAVSPHCKTDPFENVKKNEFKKSDDTEE", "not soluble"),
]
